Give measured remaining at 48 h, 1 mg/ml for each item. Keep answers brief.
test: Chemical stability PBS buffer at pH 7.4 at 1 mg/ml at room temperature assessed as ratio of Asn-containing cyclic peptides after 48 hrs by HPLC method; format: physicochemical; settings: read-out: Stability
Where a SMILES comes first, the peptide text is derived from it. Bridges are numbered along the chain shown (N, C = ends).
Numbers only, in %.

# count of solved cases: 2
| compound | experimental.endpoint | unit.spec | quantitative.result |
| --- | --- | --- | --- |
| N=C(N)NCCC[C@@H]1NC(=O)CNC(=O)[C@H](CC(N)=O)NC(=O)CCSC[C@@H](C(N)=O)NC1=O | remaining at 48 h, 1 mg/ml | % | 89 |
| N=C(N)NCCC[C@@H]1NC(=O)CNC(=O)[C@H](CC(N)=O)NC(=O)[C@H](CCCCN)NC(=O)CC[C@@H](C(N)=O)NC1=O (KNGRE-NH2; lactam N-5) | remaining at 48 h, 1 mg/ml | % | 100 |

Now consider the entry below.
*Q* I have this compound here, CC(=O)N[C@H]1CSSC[C@@H](C(N)=O)NC(=O)[C@H](CCCNC(=N)N)NC(=O)CNC(=O)[C@H](CC(N)=O)NC1=O (Ac-CNGRC-NH2; disulfide 1-5) , and I need its recorded remaining at 48 h, 1 mg/ml.
*A* 93
